assay: chemical genetic growth profiling, strain panel (AID 1159580);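 also: tested at 20 µM; growth read once vehicle control cultures reached saturation at 30 °C; lower values mean less growth of the strain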; settings: S. cerevisiae deletion strains, growth OD, locus YOR136W, strain idh2
Among all 5,500 compounds or so, about 2,000 (36%) were called active. Inconclusive results (about 18%) are left out. Rule as the data show it: active = normalized growth mostly below about 0.91 (no sharp cut-off); inconclusive = no clear call, values can overlap the other calls; inactive = mostly above about 0.92. The list shows a part of the results. Where a SMILES comes first, the peptide text is derived from it.
Would you mind answering with one of these outcomes? Y for active, N for inactive

Example entries and their recorded answers appear below.
> print(dat)
                                   molecule  assigned.category
1  NC(N)=NCCCC(NC(=O)C(N)Cc1ccc(O)cc1)C(=O)O (stereo unspecified)                  N
2  CC(C)CCCC(C)C1CCC2C3CC[C@H]4CCCC[C@]4(C)C3CC[C@]12C (stereo partly specified)                  N
3                  CCC(=O)Nc1ccc(Cl)c(Cl)c1                  N
4  CN1CC(CNC(=O)OCc2ccccc2)CC2c3cccc4c3c(cn4C)CC21 (stereo unspecified)                  N
5  CC(CCC(=O)O)[C@H]1CCC2C3C(C[C@H](O)[C@@]21C)[C@@]1(C)CC[C@@H](O)C[C@H]1C[C@H]3O (stereo partly specified)                  N
6                                 Nc1ccncc1                  N

Problem: How did this test come out for Nc1cc(-c2ccncc2)c[nH]c1=O ?
Result: Y

Problem: # iterate: O=C(O)c1ccccc1C(=O)Nc1ccc(S(=O)(=O)Nc2nccs2)cc1
Result: N

Problem: # iterate: NCCCCC(N)C(=O)NC(Cc1ccc(O)cc1)C(=O)NC(CCCCN)C(=O)O (stereo not drawn) (H-Lys-Tyr-Lys-OH; configuration not given here)
Result: N

Problem: # iterate: CC[C@H](CCC(C)[C@H]1CCC2C3CCC4C[C@@H](O)CC[C@]4(C)C3CC[C@@]21C)C(C)C (stereo partly specified)
Result: N

Problem: # iterate: COc1cc(C)c(C(=O)Oc2cc(C)c(C(=O)O)c(O)c2C)c(OC)c1C
Result: N

Problem: # iterate: CN(C)C(=O)Nc1ccc(Cl)c(Cl)c1
Result: N

Problem: # iterate: CN(C)CCC(c1ccc(Br)cc1)c1ccccn1 (stereo unspecified)
Result: N

Problem: # iterate: Clc1ccc2c(c1)C(N1CCNCC1)=Nc1ccccc1O2
Result: N

Problem: # iterate: NCC(CC(=O)O)c1ccc(Cl)cc1 (stereo unspecified)
Result: N

Problem: # iterate: OC1=Cc2c(O)cc(O)cc2OC1(O)c1ccc(O)c(O)c1 (stereo unspecified)
Result: N

Problem: # iterate: O=c1[nH]cnc2[nH]ncc12
Result: N

Problem: # iterate: COc1cc(C(=O)O)c2c(c1C)OC(=O)c1c(C)cc(O)c(C=O)c1O2
Result: N

Problem: # iterate: O=C(O)CCCOc1ccc(Cl)cc1Cl
Result: N

Problem: # iterate: COc1c2ccoc2nc2c(OC)c(OCC(O)C(C)(C)O)ccc12 (stereo unspecified)
Result: N

Problem: # iterate: C=C1C2=CC(=O)O[C@@H](c3ccoc3)[C@]2(C)CCC1[C@@]1(C)C=CC(=O)C(C)(C)[C@@H]1CC(=O)OC (stereo partly specified)
Result: N

Problem: # iterate: COC(=O)CCC(C)[C@H]1CCC2C3C(C[C@H](O)[C@@]21C)[C@@]1(C)CC[C@@H](O)C[C@H]1C[C@H]3O (stereo partly specified)
Result: N

Problem: # iterate: C=C[C@H]1CN2CC[C@H]1C[C@@H]2[C@H](O)c1ccnc2ccccc12
Result: N
